Tested on: SK-MEL-2
Assay: NCI tumour cell line growth inhibition, 48 h
Active and inactive are the calls of the source. Cut-off read from the data, not from the text of the source: active = GI50 up to about 1.1 µM and inactive = higher.
Assignment: determine reported GI50 for the given compounds.

Inquiry: Form field: reported GI50 of `CCOC(=O)c1csc(NC(=O)CN2CCN(C)CC2)n1`
Reply text: > 100 µM (inactive)

Inquiry: Form field: reported GI50 of `CN(C)CCCNC(=O)N/N=C/c1ccc([N+](=O)[O-])cc1`
Reply text: > 100 µM (inactive)

Inquiry: Form field: reported GI50 of Cc1ccc(C(=O)C(C)N)cc1C (stereo not drawn)
Reply text: > 100 µM (inactive)

###

Test system: HT-29
Assay: NCI tumour cell line growth inhibition, 48 h
Activity calls are given as the source filed them. Cut-off read from the data, not from the text of the source: active = GI50 up to about 1.1 µM and inactive = higher.
quantity name: GI50

Inquiry: Form field: reported GI50 of `O=C(COc1cc(=O)oc2ccccc12)c1ccccc1`
Reply text: 22.6 µM (inactive)

Inquiry: Form field: reported GI50 of `COC(=O)/C=C1\CCCN1CCc1cc2c(cc1CC#N)OCO2`
Reply text: 32.2 µM (inactive)

Inquiry: Form field: reported GI50 of NC(CSC(c1ccccc1)(c1ccccc1)c1ccccc1)C(=O)O (centres undefined)
Reply text: 2.94 µM (inactive)

Inquiry: Form field: reported GI50 of `CN(CCNC(=O)c1cn(C)c2c1ccc1cc(Cl)ccc12)CCNC(=O)c1cn(C)c2c1ccc1cc(Cl)ccc12`
Reply text: 1.93 µM (inactive)

###

Tested on: UO-31
Assay: NCI tumour cell line growth inhibition, 48 h
Active and inactive are the calls of the source. No stated cut-off is given here; in the data, active = GI50 up to about 1.1 µM and inactive = higher. Non-standard residues stand in square brackets, D forms with d. Residues, ends and D or L forms follow the SMILES beside them. ΔPro = O=C(O)[CH]1C=CCN1
Lab note: assign the record to one of active, inactive

Inquiry: What did the test return for `N#CCCN(CCC#N)c1ccc(/C=C(/NC(=O)c2cc([N+](=O)[O-])ccc2Cl)C(=O)N=[N+]=[N-])cc1` ?
Reply text: inactive

Inquiry: What did the test return for O=C(O)C1C=CCN1C(=O)C1C=CCN1C(=O)C1C=CCN1 (stereo not drawn) (H-[ΔPro]-[ΔPro]-[ΔPro]-OH; configuration not given here) ?
Reply text: inactive

Inquiry: What did the test return for `O=C(/C=C/c1ccc([N+](=O)[O-])cc1)c1nc2ccccc2[nH]1` ?
Reply text: inactive

Inquiry: What did the test return for CC1OC(OC2C(OC3CCC4(C)C(CCC5(C)C4CC=C4C6CC(C)(C)CCC6(C(=O)O)CCC45C)C3(C)CO)OCC(O)C2O)C(O)C(O)C1O (stereo not drawn) ?
Reply text: inactive

Inquiry: What did the test return for COc1ccc2c(c1)C1C(CO2)C(c2ccccc2)=NN1c1ccccc1 (stereo not drawn) ?
Reply text: inactive

Inquiry: What did the test return for `CN(C)CCCNC(=O)N/N=C/c1ccc([N+](=O)[O-])cc1` ?
Reply text: inactive

Inquiry: What did the test return for COc1cc(C2c3[nH]c4ccccc4c3C[C@H]3COC(=O)N23)cc(OC)c1OC (stereo partly drawn) ?
Reply text: active

Inquiry: What did the test return for NC(CCC(=O)NC(CSC(=O)N(O)c1ccc(Br)cc1)C(=O)NCC(=O)O)C(=O)O (stereo not drawn) ?
Reply text: inactive

###

Test system: MOLT-4
Assay: NCI tumour cell line growth inhibition, 48 h
Calls of active or inactive are those of the source. Cut-off read from the data, not from the text of the source: active = GI50 up to about 1.1 µM and inactive = higher.
quantity name: GI50

Inquiry: Form field: reported GI50 of Cc1ccc(C(=O)C(C)N)cc1C (stereo not given)
Reply text: > 100 µM (inactive)

Inquiry: Form field: reported GI50 of `CN1CCN(C(=S)N(C(=O)c2cccs2)C2CCCCC2)CC1`
Reply text: > 10 µM (inactive)

Inquiry: Form field: reported GI50 of `Cc1cc(C)n(-c2nsc3ccccc23)n1`
Reply text: > 100 µM (inactive)

Inquiry: Form field: reported GI50 of `Oc1ccc(C(O)(c2ccccc2)c2ccccc2)c2ccccc12`
Reply text: 3.14 µM (inactive)

Inquiry: Form field: reported GI50 of `COP(=O)(Cc1ccc(/C=C/C#N)o1)OC`
Reply text: > 100 µM (inactive)
